# measurement-target: ProfilerPro Kinase Selectivity Assay Kit kinases (Homo sapiens)
# Format: biochemical
# recorded-conditions: CHK1; 1 μM compound concentration
endpoint: POC (Percent of control) CHK1 (POC)

INSERT INTO assay_data (compound, endpoint, endpoint_value) VALUES
  ('CCc1cnc(Nc2ccc(OC)nc2)c(-c2nc(C)nc3[nH]cnc23)c1 [Example 74]', 'POC (Percent of control) CHK1', 101),
  ('Cc1nc(N)cc(-c2cccnc2Nc2cccc3[nH]ncc23)n1 [Example 27]', 'POC (Percent of control) CHK1', 103),
  ('Cc1cnc(Nc2cccc3[nH]ncc23)c(-c2nc(C)nc(N)n2)c1 [Example 47]', 'POC (Percent of control) CHK1', 92),
  ('c1cnc(Nc2cccc3[nH]ccc23)c(-c2ncnc3[nH]cnc23)c1 [Example 19]', 'POC (Percent of control) CHK1', 83),
  ('COc1ccc(Nc2ncccc2-c2nc(C)nc3[nH]cnc23)cn1 [Example 58]', 'POC (Percent of control) CHK1', 101),
  ('Cc1nc(N)nc(-c2cccnc2Nc2cccc3[nH]ccc23)n1 [Example 22]', 'POC (Percent of control) CHK1', 103),
  ('Cc1nc(-c2cccnc2Nc2cccc3[nH]ncc23)c2nc[nH]c2n1 [Example 57]', 'POC (Percent of control) CHK1', 106),
  ('COc1ccc(Nc2ncccc2-c2ncnc3[nH]cnc23)cn1 [Example 20]', 'POC (Percent of control) CHK1', 104),
  ('c1cnc(Nc2cccc3[nH]ncc23)c(-c2ncnc3[nH]cnc23)c1 [Example 18]', 'POC (Percent of control) CHK1', 97);

---

# Tested on: phosphorylation of Akt at Serine 473 in U87 MG cells
# method-notes: cells
# recorded-conditions: Homo sapiens, U-87 MG, 2 h, read-out: U87Cell IC50, pAkt (Ser 473), U87 MG cells, two hours with compound
pIC50: −log10 of the molar value.
endpoint: pIC50

Examples from the recorded data:
INSERT INTO assay_data (compound, measurement_target, endpoint, endpoint_value) VALUES
  ('Cc1nc(N)nc(-c2cc(CN3CCN(S(C)(=O)=O)CC3)cnc2Nc2ccc3ncsc3c2)n1', 'phosphorylation of Akt at Serine 473 in U87 MG cells', 'pIC50', 7.06),
  ('COc1ncc(Nc2nc(COCC(F)(F)F)ccc2-c2nc(C)nc(N)n2)cc1F', 'phosphorylation of Akt at Serine 473 in U87 MG cells', 'pIC50', 6.64),
  ('Cc1nc(-c2cc(C(C)N3CCOCC3)cnc2Nc2cnc(Cl)c(NS(=O)(=O)N(C)C)c2)c2nc[nH]c2n1 (stereo not shown)', 'phosphorylation of Akt at Serine 473 in U87 MG cells', 'pIC50', 7.85);

1: COc1cc(Nc2ncc(CN3CCN(S(C)(=O)=O)C[C@@H]3C)cc2-c2nc(C)nc(N)n2)cnc1Cl
2: COc1ccc(Nc2ncc(CN3CCN(S(C)(=O)=O)CC3)cc2-c2cc(N)nc(C)n2)cn1
3: COc1ncc(Nc2ncc(C(C)N3CCN(S(C)(=O)=O)CC3)nc2-c2cc(N)nc(C)n2)cc1F (stereo not shown)
4: COc1ccc(Nc2ncc(Cl)cc2-c2nc(C)nc3[nH]cnc23)cn1
5: COc1ccc(Nc2ncc([C@@H](C)N3CCN(S(C)(=O)=O)CC3)cc2-c2nc(C)nc(N)n2)cn1
Rank order required: pIC50, descending. Lab note: final answer is the ordered label list.
3, 5, 1, 2, 4
(3: 8.40, 5: 8.15, 1: 7.92, 2: 7.30, 4: 6.60)

P: COc1ncc(Nc2ncc(C(C)O)cc2-c2nc(C)nc(N)n2)cc1F (stereo not shown)
Q: COc1ccc(Nc2ncc(CN3CCN(S(=O)(=O)N(C)C)CC3)cc2-c2nc(C)nc3[nH]cnc23)cn1
Record comparison, field pIC50: mark the lower of P and Q . Give the label of your selection.
Q
